Form field: IC50 at 72 h (one value per entry).
- test_description: In-vitro cytotoxic activity against human HUVEC cells incubated for 72 hrs by CCK8 assay
- Assay type: toxicity, cell-based

Answered examples (4):
molecule: CN1c2ccc(F)cc2C(=O)N2CCc3c([nH]c4ccc(OC(=O)CCCC(=O)Oc5ccc6[nH]c7c(c6c5)CCN5C(=O)c6cc(F)ccc6N(C)C75)cc34)C21 (stereo not given)
IC50 at 72 h: 580 nM
//
molecule: CN1c2ccc(F)cc2C(=O)N2CCc3c([nH]c4ccc(O)cc34)C21 (stereo not given)
IC50 at 72 h: 260 nM
//
molecule: CC[C@@]1(O)C(=O)OCc2c1cc1n(c2=O)Cc2cc3ccccc3nc2-1
IC50 at 72 h: 12 nM
//
molecule: CN1c2ccc(F)cc2C(=O)N2CCc3c([nH]c4ccc(OC(=O)CCC(=O)Oc5ccc6[nH]c7c(c6c5)CCN5C(=O)c6cc(F)ccc6N(C)C75)cc34)C21 (stereo not given)
IC50 at 72 h: 210 nM

QUERY: If you can, please state the reported IC50 at 72 h value of CN1c2ccc(F)cc2C(=O)N2CCc3c([nH]c4ccc(OC(=O)CCSSCCC(=O)Oc5ccc6[nH]c7c(c6c5)CCN5C(=O)c6cc(F)ccc6N(C)C75)cc34)C21 (stereo not given) .
RESULT: 130 nM
